# MIC annotations
system: Klebsiella pneumoniae; experiment: Antibacterial activity against Klebsiella pneumoniae assessed as bacterial growth inhibition incubated for 24 hrs by CLSI based two serial dilution assay; format: functional

COMPOUND: CCN1C(=O)/C(=N\Nc2nccs2)c2ccccc21
MIC, µM: 64
//
COMPOUND: CCCCN1C(=O)/C(=N\Nc2nccs2)c2cc([N+](=O)[O-])ccc21
MIC, µM: 512
//
COMPOUND: CCCCCCCCCCN1C(=O)/C(=N\Nc2nccs2)c2ccccc21
MIC, µM: 256
//
COMPOUND: CCCCN1C(=O)/C(=N\Nc2nccs2)c2cc(F)ccc21
MIC, µM: 1
//
COMPOUND: CCCCCCCCN1C(=O)/C(=N\Nc2nccs2)c2ccccc21
MIC, µM: 512
//
COMPOUND: CCn1cc(C(=O)O)c(=O)c2cc(F)c(N3CCNCC3)cc21 [NORFLOXACIN]
MIC, µM: 4
//
COMPOUND: O=C1/C(=N\Nc2nccs2)c2ccccc2N1Cc1ccc(Cl)cc1Cl
MIC, µM: 128
//
COMPOUND: CCCCN1C(=O)/C(=N\Nc2nccs2)c2ccc(Br)cc21
MIC, µM: 0.5
//
COMPOUND: CCCCN1C(=O)/C(=N\Nc2nc(-c3ccc(F)cc3F)cs2)c2ccccc21
MIC, µM: 512
//
COMPOUND: CCCN1C(=O)/C(=N\Nc2nccs2)c2ccccc21
MIC, µM: 32
//
COMPOUND: C=CC1=C(C(=O)O)N2C(=O)[C@@H](NC(=O)/C(=N\O)c3csc(N)n3)[C@H]2SC1 [CEFDINIR]
MIC, µM: 0.5
//
COMPOUND: O=C1/C(=N\Nc2nccs2)c2ccccc2N1Cc1ccccc1Cl
MIC, µM: 512
//
COMPOUND: O=C(N[C@H](CO)[C@H](O)c1ccc([N+](=O)[O-])cc1)C(Cl)Cl [CHLORAMPHENICOL]
MIC, µM: 8
//
COMPOUND: CCCCN1C(=O)/C(=N\Nc2nccs2)c2cc(Br)cc(Br)c21
MIC, µM: 0.5
//
COMPOUND: CCCCN1C(=O)/C(=N\Nc2nccs2)c2ccc(F)cc21
MIC, µM: 2
//
COMPOUND: C=CCN1C(=O)/C(=N\Nc2nccs2)c2ccccc21
MIC, µM: 256
//
COMPOUND: CCCCN1C(=O)/C(=N\Nc2nccs2)c2ccc(Cl)cc21
MIC, µM: 0.5
//
COMPOUND: CCCCN1C(=O)/C(=N\Nc2nccs2)c2cc(OC)ccc21
MIC, µM: 128
//
COMPOUND: CCCCN1C(=O)/C(=N\Nc2nccs2)c2cccc(F)c21
MIC, µM: 1
//
COMPOUND: O=C1/C(=N\Nc2nccs2)c2ccccc2N1Cc1cccc(Cl)c1
MIC, µM: 256
//
COMPOUND: CCCCCCCCCCCCN1C(=O)/C(=N\Nc2nccs2)c2ccccc21
MIC, µM: 32
//
COMPOUND: CCCCN1C(=O)/C(=N\Nc2nccs2)c2c(Cl)cccc21
MIC, µM: 1
//
COMPOUND: O=C1/C(=N\Nc2nccs2)c2ccccc2N1Cc1ccccc1F
MIC, µM: 512
//
COMPOUND: O=C1/C(=N\Nc2nccs2)c2ccccc2N1Cc1cccc(F)c1
MIC, µM: 256
//
COMPOUND: CCCCN1C(=O)/C(=N\Nc2nccs2)c2ccccc21
MIC, µM: 0.25
//
COMPOUND: CCCCN1C(=O)/C(=N\Nc2nccs2)c2cccc(Cl)c21
MIC, µM: 0.5
